Test system: HepG2
Experiment: Antiproliferative activity against human HepG2 cells after 72 hrs by MTT assay
Assay type: functional, cell-based
Conditions: HepG2, 72 h
QUANTITY: pIC50
Give bare numbers, as −log10 of the molar value.

For the compound shown here, O=c1c2c3c(sc2ncn1Cc1ccc(Br)cc1)CCCC3 , give the reported pIC50.
4.83

###

Assay: Selectivity index, ratio of IC50 for CHO cells to IC50 for human HCT116 cells
Format: toxicity
Details: Chinese hamster (CHO cells), CHO cells versus HCT116 cells, read-out: Ratio IC50
QUANTITY: selectivity ratio

For the molecule shown here, COc1ccc(-c2nc(O)c3c4c(sc3n2)CCCC4)cc1 , give the reported selectivity ratio.
17 to 28

###

Assay: Selectivity index, ratio of IC50 for CHO cells to IC50 for human A2780 cells
Format: toxicity
Settings: Chinese hamster (CHO cells), CHO cells versus A2780 cells, read-out: Ratio IC50
QUANTITY: selectivity ratio

For the compound shown here, COc1ccc(-c2nc(O)c3c4c(sc3n2)CCCC4)cc1 , give the reported selectivity ratio.
17 to 28

###

System: PC-3
Test: Antiproliferative activity against human PC3 cells after 72 hrs by MTT assay
Assay type: functional, cell-based
Conditions: PC-3, 72 h
QUANTITY: IC50 (µM)
Numbers only, in µM.

For the compound shown here, O=C(CSc1nc2sc3c(c2c(=O)n1Cc1ccccc1)CCCC3)NNC(=S)Nc1ccccc1 , give the reported IC50.
5.33

###

System: KB
Assay: Antiproliferative activity against human KB cells by MTT assay
Assay type: functional, cell-based
QUANTITY: IC50 (µM)
Answers are plain numbers, in µM.

Give IC50 (KB) of the following compound: CCCCOc1nc2sc3c(c2c(=O)n1Cc1ccccc1)CCCC3
19

###

Experiment: Selectivity index, ratio of IC50 for CHO cells to IC50 for human HCT15 cells
Type: toxicity
Conditions: Chinese hamster (CHO cells), CHO cells versus HCT15 cells, read-out: Ratio IC50
QUANTITY: selectivity ratio

For the molecule shown here, COc1ccc(-c2nc(O)c3c4c(sc3n2)CCCC4)cc1 , give the reported selectivity ratio.
17 to 28

###

Assay: Selectivity index, ratio of IC50 for CHO cells to IC50 for human GBM10 cells
Assay type: toxicity
Conditions: Chinese hamster (CHO cells), CHO cells versus GBM10 cells, read-out: Ratio IC50
QUANTITY: selectivity ratio

For the compound shown here, COc1ccc(-c2nc(O)c3c4c(sc3n2)CCCC4)cc1 , give the reported selectivity ratio.
17 to 28

Data credit: ChEMBL document CHEMBL4130368
